Molecular target: T1, human IL-17A (construct not stated) (human, UniProt Q16552 24-155, limits assumed)
T1 construct: also called huIL-17A; human IL-17A biotin
T1 sequence: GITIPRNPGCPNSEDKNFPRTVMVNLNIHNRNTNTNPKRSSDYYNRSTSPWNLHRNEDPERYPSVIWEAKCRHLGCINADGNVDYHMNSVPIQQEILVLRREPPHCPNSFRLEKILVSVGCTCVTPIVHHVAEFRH
Test: ELISA on coated huIL-17A, crude Fab extract, overnight with 200 nM XAB1 Fab as competitor
value kind: Competition ELISA (normalized to XAB1 Fab)

Fill in Competition ELISA (normalized to XAB1 Fab) for each of the 2 binders listed.
1. MB440 (Fab, V domains shown, heavy chain C-terminal Flag tag) VH: EVQLVESGGDLVQPGGSLRLSCAASGFTFSSYWMSWVRQAPGKGLEWVANIKQDGSEKYYVDSVKGRFTISRDNAKNSLYLQMNSLRAEDTAVYYCARDRGSLYYWGQGTLVTVSS VL: AIQLTQSPSSLSASVGDRVTITCRPSQGILWQLAWYQQKPGKAPKLLIYDASSLENGVPSRFSGSGSGTDFTLTISSLQPEDFATYYCQQFNSYPLTFGGGTKVEIK
2. MB491 (Fab, V domains shown, heavy chain C-terminal Flag tag) VH: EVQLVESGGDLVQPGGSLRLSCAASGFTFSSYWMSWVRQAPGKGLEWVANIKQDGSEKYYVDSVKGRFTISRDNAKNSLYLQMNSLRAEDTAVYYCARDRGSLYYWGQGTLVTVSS VL: AIQLTQSPSSLSASVGDRVTITCRPSQGIFFWLAWYQQKPGKAPKLLIYDASSLENGVPSRFSGSGSGTDFTLTISSLQPEDFATYYCQQFNSYPLTFGGGTKVEIK

["54 ratio to XAB1 Fab", "44.2 ratio to XAB1 Fab"]
